biological target: human melanocortin 1 receptor (human, UniProt Q01726 1-317); assay: cell-based or functional assay
Sequence (Q01726 whole entry): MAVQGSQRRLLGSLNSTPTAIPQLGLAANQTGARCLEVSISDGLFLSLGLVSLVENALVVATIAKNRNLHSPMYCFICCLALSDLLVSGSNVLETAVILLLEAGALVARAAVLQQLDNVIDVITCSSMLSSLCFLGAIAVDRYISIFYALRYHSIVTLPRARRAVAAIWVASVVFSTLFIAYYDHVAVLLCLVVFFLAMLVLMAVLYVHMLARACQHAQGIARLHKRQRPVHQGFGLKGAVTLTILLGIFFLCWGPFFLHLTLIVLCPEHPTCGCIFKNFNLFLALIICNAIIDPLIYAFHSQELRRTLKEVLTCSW
Positions of bridges follow the written chain, without caps; N, C: chain ends. Non-standard residues stand in square brackets, D forms with d. Orn = NCCC[C@H](N)C(=O)O; Thz = O=C(O)[C@@H]1CSCN1
READOUT LABEL: MC1R cAMP EC50 (nM)
Response body: numeric value in nM, unit text excluded.

Which MC1R cAMP EC50 value is on record for cyclo(C[Thz]H[dF]HWC[Orn][Orn]AAW) (disulfide 1-7; SMILES C[C@@H]1NC(=O)[C@H](C)NC(=O)[C@H](CCCN)NC(=O)[C@H](CCCN)NC(=O)[C@@H]2CSSC[C@H](NC(=O)[C@H](Cc3c[nH]c4ccccc34)NC1=O)C(=O)N1CSC[C@H]1C(=O)N[C@@H](Cc1c[nH]cn1)C(=O)N[C@H](Cc1ccccc1)C(=O)N[C@@H](Cc1c[nH]cn1)C(=O)N[C@@H](Cc1c[nH]c3ccccc13)C(=O)N2) [Chem. 116] ?
231
